Assayed System: T1, O772P 3-repeat recombinant protein (human)
T1 construct: Repeats are residues 14-452 of the entry
T1 chain: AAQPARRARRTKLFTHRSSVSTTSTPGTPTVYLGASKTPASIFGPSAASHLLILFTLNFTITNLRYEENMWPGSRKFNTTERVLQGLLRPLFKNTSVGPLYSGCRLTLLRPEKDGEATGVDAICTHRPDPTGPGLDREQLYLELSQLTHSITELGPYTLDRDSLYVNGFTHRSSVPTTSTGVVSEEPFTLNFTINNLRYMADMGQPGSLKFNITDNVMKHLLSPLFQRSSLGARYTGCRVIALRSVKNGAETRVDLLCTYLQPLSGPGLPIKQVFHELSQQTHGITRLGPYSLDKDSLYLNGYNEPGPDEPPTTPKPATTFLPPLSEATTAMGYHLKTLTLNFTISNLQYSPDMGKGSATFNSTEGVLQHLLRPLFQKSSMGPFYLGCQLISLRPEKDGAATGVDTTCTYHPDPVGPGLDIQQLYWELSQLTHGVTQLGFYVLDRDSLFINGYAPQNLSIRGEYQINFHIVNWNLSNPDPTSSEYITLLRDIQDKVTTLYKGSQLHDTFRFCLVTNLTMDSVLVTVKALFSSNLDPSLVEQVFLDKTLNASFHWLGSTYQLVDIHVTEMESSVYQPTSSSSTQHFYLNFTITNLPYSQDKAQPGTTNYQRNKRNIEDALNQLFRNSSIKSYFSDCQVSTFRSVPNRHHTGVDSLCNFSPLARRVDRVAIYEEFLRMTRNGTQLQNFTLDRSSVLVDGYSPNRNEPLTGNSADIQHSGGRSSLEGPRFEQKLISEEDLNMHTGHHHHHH
Protocol Details: ELISA competition, plate-bound O772P 3-repeat; competitor soluble O772P 3-repeat
Reported Metric: absorbance w/O772P 3-repeat competitor (10 x w/w excess) (OD)
Entry rule: numbers only, all in OD.

Recorded result, monoclonal antibody 117.1 (antibody, V domains shown, Murine hybridoma antibody) VH: QVTLKESGPGILQPSQTLSLTCSFSGFSLSTPGMGVGWIRQPSGKGLEWLAHIWWDDFKRDNPALKSRLTISKDTSSSQVFLKIASVDTADTATYYCVRVDGNFLSWYFDVWGAGTTVTVSS VL: DAVMTQTPLSLPVSLGDQASISCRSSQSLVHSNGNTYLHWYLQKPGQSPKLLIYKVSNRFSGVPDRFSGSGSGTDFTLRISRVEAEDLGVYFCSQSRYVPWTFGGGTKLEIK , absorbance w/O772P 3-repeat competitor (10 x w/w excess): 0.071

Memo: monoclonal antibody 368.1 (antibody, V domains shown, Murine hybridoma antibody) VH: EVQLQQSGPELVRTGASVKISCKASGYSFTGFYMHWVKQSLGKSLEWIGYVSCYTGATTYTQKFKGKATFTVDTSSSTAYMQLNSLTSEDSAVYYCAREGDYYSMDFWGQGTSVTVSS VL: DVVMTQTPLSLPVSLGDQASISCRSSQSLERTNGNTYLHWYLQKPGQSPKLLIYKVSSRFSGVPDRFSGSGSGTDFTLKISRVEAEDLGIYFCSQTTHGPPTCGGGTKLEIK , reported absorbance w/O772P 3-repeat competitor (10 x w/w excess): 0.915

Recorded result, monoclonal antibody 776.1 (antibody, V domains shown) VH: EVQLQQSGPELVKPGASVKISCKASGYTFTDYNIHWVKQSHGKILEWIGYIYPYNGVSDYNQNFKSKATLIVDNSSNTAYMELRSLTSEDSAVYYCARWDFGSGYYFDYWGQGTTLTVSS VL: QIVLSQSPAILFASPGETVTMTCRASSSVIYMCWNQQKPGSSPKPWIYGTSTLASGVPTRFSGSGSGTSYSLTISRVEAEDAATYYCQQWSSNPFTFGSGTKLEI , absorbance w/O772P 3-repeat competitor (10 x w/w excess): 0.077

GET /value?item= monoclonal antibody 501.1 (antibody, V domains shown, Murine hybridoma antibody) VH: QIQLVQSGPELKKPGETVQISCKASGYIFTDYGMNWVKQAPGKGLKWMGCINTYTGETIYSDDFRGRFAISLETSASTAFIQINNLKNEDAATYFCARGNYRDAIDYWGQGTSVTVSS VL: DIKMTQSPSSIYASLGERVTITCKASQDIKSYLSWYQQKPWKSPKTLIYYATTLADGVPSRFSGSGSGQDYSLIINSLESDDIATYFCLHHDESPFTFGSGTKLEI &field=absorbance w/O772P 3-repeat competitor (10 x w/w excess) returns 0.065
